Where do these numbers come from? They come from patent US6426229B1.

assay procedure: Compression strength (hardening property) of powder stored under load for 2 months
Format: physicochemical
assay context: Load 300 (table head [Kg]; text 300 g/cm^2); 20-30° C., relative humidity 40-70%
rule met means recorded Compression strength after stored for 2 months is 0.9 Kg/cm^2 or above; rule not met means it is below 0.9 Kg/cm^2.

Example cases with answers are listed next.
O=C([O-])CN[C@@H](CC(=O)[O-])C(=O)[O-].[Na+].[Na+].[Na+]
rule not met
O=C([O-])CC(NCCCNC(CC(=O)[O-])C(=O)[O-])C(=O)[O-].[Na+].[Na+].[Na+].[Na+] (stereo not drawn)
rule met
O=C([O-])C[C@H](NCCCN[C@@H](CC(=O)[O-])C(=O)[O-])C(=O)[O-].[Na+].[Na+].[Na+].[Na+]
rule met
O=C(O)C[C@H](NCCN[C@@H](CC(=O)O)C(=O)O)C(=O)O [Example 72, (S,S)-ethylenediaminedisuccinic acid]
rule met
O=C(O)CN[C@@H](CC(=O)O)C(=O)O [Example 21, (S)-aspartic acid-N-monoacetic acid]
rule not met
O=C(O)C[C@@H](C(=O)O)N(CC(=O)O)CC(=O)O [Example 23, (S)-aspartic acid-N,N-diacetic acid]
rule met
O=C([O-])CN(CCS(=O)(=O)[O-])CC(=O)[O-].[Na+].[Na+].[Na+]
rule met
O=C(O)CC(NCCCNC(CC(=O)O)C(=O)O)C(=O)O (stereo not drawn)
rule met

Is reported Compression strength after stored for 2 months greater than or equal to 0.9 Kg/cm^2 here: O=C([O-])C[C@@H](C(=O)[O-])N(CC(=O)[O-])CC(=O)[O-].[Na+].[Na+].[Na+].[Na+] rule not met

Is reported Compression strength after stored for 2 months greater than or equal to 0.9 Kg/cm^2 here: O=C(O)C[C@H](NCCCN[C@@H](CC(=O)O)C(=O)O)C(=O)O [Example 74, (S,S)-1,3-propanediaminedisuccinic acid] rule met

Is reported Compression strength after stored for 2 months greater than or equal to 0.9 Kg/cm^2 here: O=C(O)CN(CC(=O)O)c1ccccc1C(=O)O rule met

Is reported Compression strength after stored for 2 months greater than or equal to 0.9 Kg/cm^2 here: CN(CC(=O)[O-])CC(=O)[O-].[Na+].[Na+] [Example 32, disodium N-methyliminodiacetate] rule not met

Is reported Compression strength after stored for 2 months greater than or equal to 0.9 Kg/cm^2 here: O=C([O-])C[C@H](NCC(O)CN[C@@H](CC(=O)[O-])C(=O)[O-])C(=O)[O-].[Na+].[Na+].[Na+].[Na+] rule met

Is reported Compression strength after stored for 2 months greater than or equal to 0.9 Kg/cm^2 here: O=C(O)C[C@H](NCC(O)CN[C@@H](CC(=O)O)C(=O)O)C(=O)O rule met

Is reported Compression strength after stored for 2 months greater than or equal to 0.9 Kg/cm^2 here: O=C([O-])CCN[C@@H](CC(=O)[O-])C(=O)[O-].[Na+].[Na+].[Na+] rule met

Is reported Compression strength after stored for 2 months greater than or equal to 0.9 Kg/cm^2 here: O=C(O)C[C@H](NCCN[C@@H](CC(=O)O)C(=O)O)C(=O)O [Example 71, ethylenediaminedisuccinic acid] rule met

Is reported Compression strength after stored for 2 months greater than or equal to 0.9 Kg/cm^2 here: O=C([O-])CC(NCCNC(CC(=O)[O-])C(=O)[O-])C(=O)[O-].[Na+].[Na+].[Na+].[Na+] (stereo not drawn) [Example 56, tetrasodium ethylenediaminedisuccinate] rule not met

Is reported Compression strength after stored for 2 months greater than or equal to 0.9 Kg/cm^2 here: CN(CC(=O)O)CC(=O)O rule met
